Target protein (sequence): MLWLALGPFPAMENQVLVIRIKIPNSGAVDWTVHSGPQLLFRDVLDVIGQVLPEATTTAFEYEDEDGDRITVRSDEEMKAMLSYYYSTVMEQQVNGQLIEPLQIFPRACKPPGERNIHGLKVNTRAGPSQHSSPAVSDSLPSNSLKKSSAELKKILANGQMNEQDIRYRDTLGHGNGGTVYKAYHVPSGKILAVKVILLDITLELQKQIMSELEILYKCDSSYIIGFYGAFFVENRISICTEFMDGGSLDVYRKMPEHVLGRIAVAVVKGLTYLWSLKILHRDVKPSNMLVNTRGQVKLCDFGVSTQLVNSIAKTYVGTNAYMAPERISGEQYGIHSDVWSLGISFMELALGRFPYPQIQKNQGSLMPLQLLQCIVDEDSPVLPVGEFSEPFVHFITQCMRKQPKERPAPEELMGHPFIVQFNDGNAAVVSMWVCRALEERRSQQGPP
Metric: Kd

Give a short answer stating reported Kd for COc1cc(N(C)c2ccnc3ccc(C(F)(F)F)cc23)cc(OC)c1OC [compound 21, negative control (21)] . > 10 µM

* * *

Sequence of the target: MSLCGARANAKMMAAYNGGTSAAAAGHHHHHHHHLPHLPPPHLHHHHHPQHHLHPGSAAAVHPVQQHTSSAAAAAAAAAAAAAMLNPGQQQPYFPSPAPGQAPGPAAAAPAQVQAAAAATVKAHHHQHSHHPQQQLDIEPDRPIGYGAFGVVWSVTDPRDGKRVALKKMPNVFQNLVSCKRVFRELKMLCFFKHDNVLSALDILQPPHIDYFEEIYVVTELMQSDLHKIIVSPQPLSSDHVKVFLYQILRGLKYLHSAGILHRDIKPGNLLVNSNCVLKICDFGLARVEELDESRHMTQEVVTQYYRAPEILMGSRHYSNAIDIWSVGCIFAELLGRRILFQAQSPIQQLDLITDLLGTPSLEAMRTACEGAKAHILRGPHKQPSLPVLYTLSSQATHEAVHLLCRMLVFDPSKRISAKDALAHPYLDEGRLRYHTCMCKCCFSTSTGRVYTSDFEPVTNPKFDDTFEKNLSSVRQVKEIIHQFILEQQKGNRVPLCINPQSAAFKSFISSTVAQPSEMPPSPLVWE
pKd: −log10 of the molar value.
Metric: pKd

Give a short answer stating reported pKd for COc1cc(N(C)c2ccnc3ccc(C(F)(F)F)cc23)cc(OC)c1OC [compound 21, negative control (21)] . < 5.00

* * *

- Assay System: BMPR1B (Homo sapiens)
- Sequence (O00238 whole entry): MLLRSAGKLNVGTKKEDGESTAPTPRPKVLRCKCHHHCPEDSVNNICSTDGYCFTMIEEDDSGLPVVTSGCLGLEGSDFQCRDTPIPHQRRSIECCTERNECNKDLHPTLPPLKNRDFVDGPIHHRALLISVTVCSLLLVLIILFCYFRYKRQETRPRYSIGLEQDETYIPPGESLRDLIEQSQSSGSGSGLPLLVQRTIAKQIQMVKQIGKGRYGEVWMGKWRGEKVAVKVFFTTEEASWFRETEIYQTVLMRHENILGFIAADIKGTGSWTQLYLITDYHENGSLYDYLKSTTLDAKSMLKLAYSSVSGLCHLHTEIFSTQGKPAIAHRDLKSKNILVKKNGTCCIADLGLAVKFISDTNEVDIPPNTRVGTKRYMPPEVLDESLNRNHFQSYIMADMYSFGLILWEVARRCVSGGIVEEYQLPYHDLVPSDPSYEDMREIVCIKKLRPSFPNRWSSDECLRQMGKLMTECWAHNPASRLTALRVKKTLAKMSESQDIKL
pKd: −log10 of the molar value.
Metric: pKd

Give a short answer stating reported pKd for COc1cc(N(C)c2ccnc3ccc(C(F)(F)F)cc23)cc(OC)c1OC [compound 21, negative control (21)] . < 5.00

* * *

- Assay System: GAK (InCELL Pulse) (Homo sapiens)
- Sequence (O14976 2-1311): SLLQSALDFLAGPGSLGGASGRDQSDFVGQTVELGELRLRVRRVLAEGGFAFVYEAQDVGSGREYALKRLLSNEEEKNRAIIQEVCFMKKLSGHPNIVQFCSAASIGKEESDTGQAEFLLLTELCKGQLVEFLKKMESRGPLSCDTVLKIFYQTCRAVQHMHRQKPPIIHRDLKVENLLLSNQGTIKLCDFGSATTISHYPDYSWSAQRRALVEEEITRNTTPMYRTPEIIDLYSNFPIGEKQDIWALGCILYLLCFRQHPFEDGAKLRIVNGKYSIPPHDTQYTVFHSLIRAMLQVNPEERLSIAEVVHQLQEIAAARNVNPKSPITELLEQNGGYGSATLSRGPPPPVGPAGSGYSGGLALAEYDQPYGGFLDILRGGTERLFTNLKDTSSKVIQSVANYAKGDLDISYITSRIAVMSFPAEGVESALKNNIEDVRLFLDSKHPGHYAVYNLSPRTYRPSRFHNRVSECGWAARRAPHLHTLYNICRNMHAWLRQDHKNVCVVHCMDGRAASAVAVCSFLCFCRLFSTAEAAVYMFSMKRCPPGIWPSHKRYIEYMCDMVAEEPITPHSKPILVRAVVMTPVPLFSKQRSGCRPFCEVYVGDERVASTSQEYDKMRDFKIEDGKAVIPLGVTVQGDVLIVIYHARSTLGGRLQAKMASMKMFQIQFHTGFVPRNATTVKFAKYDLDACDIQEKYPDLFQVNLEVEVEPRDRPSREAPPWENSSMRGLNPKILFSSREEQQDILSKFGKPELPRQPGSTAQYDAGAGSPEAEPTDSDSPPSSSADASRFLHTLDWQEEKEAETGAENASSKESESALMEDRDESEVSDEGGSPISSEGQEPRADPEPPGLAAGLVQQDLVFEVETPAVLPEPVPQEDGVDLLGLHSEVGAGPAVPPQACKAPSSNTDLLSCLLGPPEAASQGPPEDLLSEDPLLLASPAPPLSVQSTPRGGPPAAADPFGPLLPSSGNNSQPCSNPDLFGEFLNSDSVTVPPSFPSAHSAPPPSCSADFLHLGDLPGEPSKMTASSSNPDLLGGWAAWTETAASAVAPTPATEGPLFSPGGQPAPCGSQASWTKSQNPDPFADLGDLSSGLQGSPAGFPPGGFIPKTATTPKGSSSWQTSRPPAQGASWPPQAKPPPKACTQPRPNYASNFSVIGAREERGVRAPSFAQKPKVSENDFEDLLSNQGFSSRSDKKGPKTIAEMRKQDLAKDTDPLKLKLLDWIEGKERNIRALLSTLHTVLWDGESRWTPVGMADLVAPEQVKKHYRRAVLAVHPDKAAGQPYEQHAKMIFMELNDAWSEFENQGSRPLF
- Method Summary: InCELL Pulse cellular target engagement
- Measurement Context: in cells
Metric: IC50 (µM)
Please reply with the bare figure in µM and do not write the unit itself.

Give a short answer stating reported IC50 for COc1cc(Nc2ncnc3ccc(C(F)(F)F)cc23)cc(OC)c1OC [compound 19, quinazoline (19)] . 6.7

Give a short answer stating reported IC50 for COc1cc2nccc(Nc3cc(OC)c(OC)c(OC)c3)c2cc1OC [compound 15, 6,7-disubstituted methoxy (15)] . 0.045

* * *

- Assay System: receptor-interacting protein kinase 2, RIPK2 (Homo sapiens, UniProt O43353)
- Sequence (O43353 whole entry): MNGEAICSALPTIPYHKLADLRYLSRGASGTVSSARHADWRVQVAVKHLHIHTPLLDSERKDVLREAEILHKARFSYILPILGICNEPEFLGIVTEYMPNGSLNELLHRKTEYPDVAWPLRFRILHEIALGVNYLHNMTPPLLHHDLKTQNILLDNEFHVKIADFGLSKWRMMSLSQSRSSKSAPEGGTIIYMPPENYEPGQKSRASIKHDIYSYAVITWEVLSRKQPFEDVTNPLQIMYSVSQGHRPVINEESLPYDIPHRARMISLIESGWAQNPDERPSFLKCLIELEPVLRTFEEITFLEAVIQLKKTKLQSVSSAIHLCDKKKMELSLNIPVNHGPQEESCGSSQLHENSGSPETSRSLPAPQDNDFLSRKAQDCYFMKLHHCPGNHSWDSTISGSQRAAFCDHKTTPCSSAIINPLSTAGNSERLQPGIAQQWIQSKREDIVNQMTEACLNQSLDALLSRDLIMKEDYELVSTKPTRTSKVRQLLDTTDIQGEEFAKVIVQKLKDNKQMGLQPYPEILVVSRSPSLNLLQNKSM
Metric: Kd

Under receptor-interacting protein kinase 2, RIPK2 (Homo sapiens, UniProt O43353), report Kd for COc1cc(N(C)c2ccnc3ccc(C(F)(F)F)cc23)cc(OC)c1OC [compound 21, negative control (21)] > 10 µM

* * *

Target chain: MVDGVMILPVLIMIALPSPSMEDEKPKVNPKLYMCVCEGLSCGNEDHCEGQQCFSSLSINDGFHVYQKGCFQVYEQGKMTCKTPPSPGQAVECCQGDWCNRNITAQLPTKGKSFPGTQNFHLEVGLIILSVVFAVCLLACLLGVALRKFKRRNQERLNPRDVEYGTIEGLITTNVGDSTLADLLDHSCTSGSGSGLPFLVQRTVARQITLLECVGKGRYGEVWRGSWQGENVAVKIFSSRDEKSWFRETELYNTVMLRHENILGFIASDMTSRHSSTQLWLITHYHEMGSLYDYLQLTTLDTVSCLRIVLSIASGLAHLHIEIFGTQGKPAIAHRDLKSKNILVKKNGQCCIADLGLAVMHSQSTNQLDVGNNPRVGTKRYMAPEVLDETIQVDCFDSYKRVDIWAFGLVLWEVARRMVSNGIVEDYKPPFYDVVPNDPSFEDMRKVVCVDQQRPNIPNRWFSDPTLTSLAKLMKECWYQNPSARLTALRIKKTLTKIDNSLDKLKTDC
pKd: −log10 of the molar value.
Metric: pKd

Give a short answer stating reported pKd for COc1cc(N(C)c2ccnc3ccc(C(F)(F)F)cc23)cc(OC)c1OC [compound 21, negative control (21)] . < 5.00

* * *

- Assay System: AarF domain containing kinase 3, ADCK3 (Homo sapiens)
- Sequence (Q8NI60 163-647): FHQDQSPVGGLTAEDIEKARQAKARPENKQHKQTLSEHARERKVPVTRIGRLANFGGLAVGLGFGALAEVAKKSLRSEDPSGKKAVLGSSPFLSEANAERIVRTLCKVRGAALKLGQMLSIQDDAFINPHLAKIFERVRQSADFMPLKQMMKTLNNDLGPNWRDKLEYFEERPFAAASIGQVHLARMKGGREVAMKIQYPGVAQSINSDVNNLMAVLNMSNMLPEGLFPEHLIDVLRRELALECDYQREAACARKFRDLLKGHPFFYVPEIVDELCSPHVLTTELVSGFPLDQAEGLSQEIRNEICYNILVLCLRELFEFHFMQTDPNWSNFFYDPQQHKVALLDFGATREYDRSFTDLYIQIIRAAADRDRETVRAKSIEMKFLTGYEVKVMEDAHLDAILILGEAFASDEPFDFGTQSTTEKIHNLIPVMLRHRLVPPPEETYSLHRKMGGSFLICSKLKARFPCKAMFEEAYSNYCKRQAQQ
pKd: −log10 of the molar value.
Metric: pKd

Give a short answer stating reported pKd for COc1cc(N(C)c2ccnc3ccc(C(F)(F)F)cc23)cc(OC)c1OC [compound 21, negative control (21)] . < 5.00

* * *

- Assay System: EphB6 (Homo sapiens)
- Sequence (O15197 whole entry): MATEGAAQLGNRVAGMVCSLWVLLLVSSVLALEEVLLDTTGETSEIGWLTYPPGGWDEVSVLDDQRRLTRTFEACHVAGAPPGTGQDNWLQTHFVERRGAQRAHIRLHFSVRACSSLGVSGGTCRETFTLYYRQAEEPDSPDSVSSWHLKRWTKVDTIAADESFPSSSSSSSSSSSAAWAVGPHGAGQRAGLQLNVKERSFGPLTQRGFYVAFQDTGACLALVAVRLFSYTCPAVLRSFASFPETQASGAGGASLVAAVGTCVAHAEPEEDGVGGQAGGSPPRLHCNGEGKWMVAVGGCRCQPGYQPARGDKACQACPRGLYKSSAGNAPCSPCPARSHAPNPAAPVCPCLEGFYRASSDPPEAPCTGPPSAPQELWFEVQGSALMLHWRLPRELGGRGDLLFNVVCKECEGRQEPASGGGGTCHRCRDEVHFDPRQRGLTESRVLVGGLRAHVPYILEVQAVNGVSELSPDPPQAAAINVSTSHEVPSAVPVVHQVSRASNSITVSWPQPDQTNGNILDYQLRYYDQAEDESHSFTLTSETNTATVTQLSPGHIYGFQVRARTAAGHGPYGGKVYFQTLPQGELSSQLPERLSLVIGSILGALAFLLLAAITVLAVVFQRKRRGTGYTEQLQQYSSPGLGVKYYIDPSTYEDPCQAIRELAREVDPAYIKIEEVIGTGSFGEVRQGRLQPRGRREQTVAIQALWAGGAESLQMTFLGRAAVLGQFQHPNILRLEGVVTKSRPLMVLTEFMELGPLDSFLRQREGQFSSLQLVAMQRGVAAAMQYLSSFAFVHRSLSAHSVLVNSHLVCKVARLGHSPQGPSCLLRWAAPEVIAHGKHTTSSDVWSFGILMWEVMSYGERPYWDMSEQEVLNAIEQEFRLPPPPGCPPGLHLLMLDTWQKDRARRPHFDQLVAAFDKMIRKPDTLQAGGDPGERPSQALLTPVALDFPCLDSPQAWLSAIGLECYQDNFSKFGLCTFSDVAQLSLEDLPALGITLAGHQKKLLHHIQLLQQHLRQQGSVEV
Metric: Kd

Give a short answer stating reported Kd for COc1cc(N(C)c2ccnc3ccc(C(F)(F)F)cc23)cc(OC)c1OC [compound 21, negative control (21)] . > 10 µM

* * *

- Assay System: EphA1 (Homo sapiens)
- Sequence (P21709 whole entry): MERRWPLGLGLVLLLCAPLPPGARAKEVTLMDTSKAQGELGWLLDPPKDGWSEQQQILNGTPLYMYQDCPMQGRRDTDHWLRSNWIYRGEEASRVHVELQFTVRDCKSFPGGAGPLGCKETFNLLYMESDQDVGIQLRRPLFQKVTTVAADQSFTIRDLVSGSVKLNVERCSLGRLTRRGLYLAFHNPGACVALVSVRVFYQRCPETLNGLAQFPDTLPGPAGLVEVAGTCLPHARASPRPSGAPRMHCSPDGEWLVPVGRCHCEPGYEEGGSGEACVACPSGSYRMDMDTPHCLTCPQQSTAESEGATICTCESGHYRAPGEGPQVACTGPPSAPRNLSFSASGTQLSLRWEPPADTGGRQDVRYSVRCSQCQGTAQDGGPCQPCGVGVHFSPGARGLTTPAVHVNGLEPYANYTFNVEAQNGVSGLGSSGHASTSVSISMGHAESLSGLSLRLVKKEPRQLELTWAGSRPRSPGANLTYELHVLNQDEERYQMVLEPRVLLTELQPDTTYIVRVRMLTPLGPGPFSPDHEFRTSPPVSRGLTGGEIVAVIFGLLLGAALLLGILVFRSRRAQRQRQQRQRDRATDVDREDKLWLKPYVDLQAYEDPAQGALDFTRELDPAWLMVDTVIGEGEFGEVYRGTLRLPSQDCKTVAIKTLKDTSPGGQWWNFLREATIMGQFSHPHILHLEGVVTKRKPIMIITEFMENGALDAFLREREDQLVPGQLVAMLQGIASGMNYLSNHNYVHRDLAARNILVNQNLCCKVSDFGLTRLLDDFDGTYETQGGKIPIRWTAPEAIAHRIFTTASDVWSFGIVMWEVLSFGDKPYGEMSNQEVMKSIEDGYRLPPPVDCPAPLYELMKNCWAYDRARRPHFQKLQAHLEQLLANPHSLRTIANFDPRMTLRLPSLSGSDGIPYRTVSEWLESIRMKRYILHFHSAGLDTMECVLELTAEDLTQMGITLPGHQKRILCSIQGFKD
pKd: −log10 of the molar value.
Metric: pKd

Under EphA1 (Homo sapiens), report pKd for COc1cc(N(C)c2ccnc3ccc(C(F)(F)F)cc23)cc(OC)c1OC [compound 21, negative control (21)] < 5.00

* * *

- Assay System: UniProtKB P06239
- Sequence (P06239 whole entry): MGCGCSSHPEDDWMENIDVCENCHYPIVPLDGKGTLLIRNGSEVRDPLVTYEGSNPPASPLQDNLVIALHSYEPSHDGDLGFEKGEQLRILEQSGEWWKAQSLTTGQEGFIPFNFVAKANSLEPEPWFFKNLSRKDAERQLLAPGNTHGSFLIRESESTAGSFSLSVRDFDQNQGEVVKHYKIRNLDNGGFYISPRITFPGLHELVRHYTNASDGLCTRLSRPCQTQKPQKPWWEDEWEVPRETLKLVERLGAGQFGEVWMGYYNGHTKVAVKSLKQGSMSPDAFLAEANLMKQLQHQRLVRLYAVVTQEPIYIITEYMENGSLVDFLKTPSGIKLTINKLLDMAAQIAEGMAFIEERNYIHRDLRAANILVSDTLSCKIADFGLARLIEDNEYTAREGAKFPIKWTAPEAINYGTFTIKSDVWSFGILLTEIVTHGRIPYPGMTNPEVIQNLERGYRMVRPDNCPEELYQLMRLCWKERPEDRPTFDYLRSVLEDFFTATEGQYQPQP
Metric: Kd

Under UniProtKB P06239, report Kd for COc1cc(N(C)c2ccnc3ccc(C(F)(F)F)cc23)cc(OC)c1OC [compound 21, negative control (21)] > 10 µM

Attribution: paper doi:10.1101/471615v1
